- method: Distribution coefficient value of the compound
- Assay type: physicochemical
- condition: octanol/water
The entries below come with measured logD values attached.

Use these answered entries as a reference point.
- compound: "OC(CNCCc1ccc(Cl)c(Cl)c1)COc1cccc2[nH]ccc12 (stereo not given)"
  logD: 2.5
- compound: "O=[N+]([O-])c1ccc(CCNCC(O)COc2cccc3[nH]ccc23)cc1 (stereo not given)"
  logD: 1.5
- compound: "OC(CNCCc1ccccc1)COc1cccc2[nH]ccc12 (stereo not given)"
  logD: 1.7

// lookup logD for Nc1ccc(CCNCC(O)COc2cccc3[nH]ccc23)cc1 (stereo not given)
0.3

// lookup logD for CC(C)(CO)NCC(O)COc1cccc2[nH]ccc12 (stereo not given)
-0.6

// lookup logD for CC(C)NCC(O)COc1cccc2[nH]ccc12 (stereo not given)
-0.3

// lookup logD for COc1ccc(CCNCC(O)COc2cccc3[nH]ccc23)cc1OC (stereo not given)
1.1

// lookup logD for OC(CNCCc1ccc(F)cc1)COc1cccc2[nH]ccc12 (stereo not given)
2

// lookup logD for OC(CNCc1ccccc1F)COc1cccc2[nH]ccc12 (stereo not given)
2

// lookup logD for OC(CNCc1ccc(F)cc1)COc1cccc2[nH]ccc12 (stereo not given)
1.9

---

- method: In vitro for binding affinity against beta adrenergic receptor in rat cerebellum
- Type: tissue-based
The entries below come with measured Ki values attached.
Please give a number only; it is taken to be in nM.

Use these answered entries as a reference point.
- compound: "OC(CNCc1ccc(F)cc1)COc1cccc2[nH]ccc12 (stereo not given)"
  display unit: "nM"
  value reported: 80
- compound: "COc1ccc(CCNCC(O)COc2cccc3[nH]ccc23)cc1OC (stereo not given)"
  display unit: "nM"
  value reported: 7
- compound: "CC(C)(CO)NCC(O)COc1cccc2[nH]ccc12 (stereo not given)"
  display unit: "nM"
  value reported: 2
- compound: "Nc1ccc(CCNCC(O)COc2cccc3[nH]ccc23)cc1 (stereo not given)"
  display unit: "nM"
  value reported: 22

// lookup Ki for OC(CNCc1ccccc1F)COc1cccc2[nH]ccc12 (stereo not given)
45

// lookup Ki for OC(CNCCc1ccc(Cl)c(Cl)c1)COc1cccc2[nH]ccc12 (stereo not given)
11

// lookup Ki for O=[N+]([O-])c1ccc(CCNCC(O)COc2cccc3[nH]ccc23)cc1 (stereo not given)
8

// lookup Ki for OC(CNCCc1ccccc1)COc1cccc2[nH]ccc12 (stereo not given)
4

// lookup Ki for OC(CNCCc1ccc(F)cc1)COc1cccc2[nH]ccc12 (stereo not given)
4

// lookup Ki for CC(C)NCC(O)COc1cccc2[nH]ccc12 (stereo not given) [PINDOLOL]
1

---

- method: In vitro for binding affinity against beta adrenergic receptor in rat cortex
reported property: Ki (nM)
Please give a number only; it is taken to be in nM.

Use these answered entries as a reference point.
- molecule: "COc1ccc(CCNCC(O)COc2cccc3[nH]ccc23)cc1OC (stereo not given)"
  reported property: "Ki"
  value reported: 3
- molecule: "Nc1ccc(CCNCC(O)COc2cccc3[nH]ccc23)cc1 (stereo not given)"
  reported property: "Ki"
  value reported: 25
- molecule: "CC(C)NCC(O)COc1cccc2[nH]ccc12 (stereo not given)"
  reported property: "Ki"
  value reported: 1
- molecule: "OC(CNCc1ccc(F)cc1)COc1cccc2[nH]ccc12 (stereo not given)"
  reported property: "Ki"
  value reported: 125
- molecule: "OC(CNCCc1ccc(F)cc1)COc1cccc2[nH]ccc12 (stereo not given)"
  reported property: "Ki"
  value reported: 5
- molecule: "OC(CNCc1ccccc1F)COc1cccc2[nH]ccc12 (stereo not given)"
  reported property: "Ki"
  value reported: 60

// lookup Ki for OC(CNCCc1ccc(Cl)c(Cl)c1)COc1cccc2[nH]ccc12 (stereo not given)
6

// lookup Ki for CC(C)(CO)NCC(O)COc1cccc2[nH]ccc12 (stereo not given)
2

// lookup Ki for O=[N+]([O-])c1ccc(CCNCC(O)COc2cccc3[nH]ccc23)cc1 (stereo not given)
5

// lookup Ki for OC(CNCCc1ccccc1)COc1cccc2[nH]ccc12 (stereo not given)
5
